tested on: EKVX NSCLC; assay: NCI-60 one-dose screen, 48 h (100 = growth as untreated, 0 = no growth, -100 = all killed); details: 10 µM unless noted
About 83,000 compounds went through this panel and 20% of them were active in at least one assay; those are over-represented in the sample as a whole.
Quick rule for you: growth under 90% gets True, anything else gets False.

Solved cases (5 shown):
[[record]]
compound = "COc1ccccc1N1CCN(C2=CC(=O)C(C)=C(C)C2=O)CC1"
assigned_label = "False"

[[record]]
compound = "Cn1cc(-c2nc(N)nnc2-c2c[nH]c3ccccc23)c2cc(Br)ccc21"
assigned_label = "True"

[[record]]
compound = "COc1ccccc1NCc1cccn1Cc1ccc(F)cc1"
assigned_label = "False"

[[record]]
compound = "Oc1[nH]c2ccccc2c1Nn1c(N=N/C=c2/ccc3c(c2)C=NN=3)n[nH]c1=S"
assigned_label = "True"

[[record]]
compound = "COc1cc(OC)c(S(N)(=O)=O)cc1C(=O)/C=C/c1ccc(Cl)cc1"
assigned_label = "True"


**Q:** Regarding CCNC(=O)N1CCc2cc(OC)c(OCCc3ccc(OC)cc3)cc2C1c1ccc(OC)cc1C (centres undefined) , kindly confirm whether its growth is beneath 90%.
**A:** True

**Q:** Another compound: Nc1nc(N)c2c(n1)NC(c1ccc(C(F)(F)F)cc1)CC(c1ccc(Nc3nc(NCCO)nc(N4CCOCC4)n3)cc1)=N2 (centres undefined)
**A:** True

**Q:** Here is the next compound: O=C(CSc1nc2ccccc2c(=O)n1-c1ccccc1)Nc1cccc(C(=O)/C=C/c2ccccc2Cl)c1
**A:** False

----------
test system: UO-31 renal; experiment: NCI-60 one-dose screen, 48 h (100 = growth as untreated, 0 = no growth, -100 = all killed); conditions: 10 µM unless noted
This is part of a sample that, as a whole, favours compounds with a hit. Of some 83,000 tested, about 20% had one in any assay.
measured attribute: growth (%)
Numbers only, in %.

[[record]]
compound = "O=c1c2ccccc2nc(COc2ccccc2)n1NS(=O)(=O)c1ccc(Cl)cc1"
observed_value = 62.7

[[record]]
compound = "C#CCOc1ccc(/C=N\\Nc2nc(-c3ccc(C)cc3)cs2)cc1OC"
observed_value = 78.3

[[record]]
compound = "COc1ccc(NC(=O)CSc2nnc(-c3ccc4nc(-c5ccccc5)[nH]c4c3)o2)cc1"
observed_value = 85.7


Please look at the items below and tell me growth for each one, in order.
1. N#Cc1cccc(CN2CCC3=C(C2)C(=O)N(Cc2ccc(Cl)cc2)C2=NCCN23)c1
2. O=C(NCCN1CCCC1)c1ccc(-c2nc3ccc4[nH]ncc4c3c3c2CCCC3)cc1
3. CC(O)c1cc2ccccc2c(=O)o1 (stereo not given)
4. CN1CCN(c2ccc(/C=N/Nc3nc4ccccc4c(=O)n3-c3ccccc3)cc2)CC1
5. CC(=O)O[C@@H]1C(=O)N(c2cnccn2)[C@H]1c1ccccc1[N+](=O)[O-]
6. Nc1nc(N)c2c(n1)NC(c1ccc(C(F)(F)F)cc1)CC(c1ccc(Nc3nc(NCCO)nc(N4CCOCC4)n3)cc1)=N2 (stereo not given)
7. CC(C)(C)CC(C)(C)n1nnnc1C(Nc1nccs1)c1cc2cccc3ccc4cccc1c4c32 (stereo not given)

**A:**
1: 35.5; 2: 43.3; 3: 89.9; 4: 95.5; 5: 27.7; 6: 80.4; 7: 87.9

----------
tested on: MCF7 breast; test: NCI-60 one-dose screen, 48 h (100 = growth as untreated, 0 = no growth, -100 = all killed); settings: 10 µM unless noted
The panel holds about 83,000 compounds, 20% with a hit somewhere; the sample as a whole holds those more often. Activity calls are given as the source filed them. The calls were made as follows: active = growth percent below 10; inactive = the rest.
I'd be grateful if you could share measured growth for these entries.

// batch mode: one growth value per listed entry
1. CC1(C)CC[C@]2(CN)CC[C@]3(C)C(=CC[C@@H]4[C@@]5(C)CCCNC(C)(C)[C@@H]5CC[C@]43C)[C@H]2C1
2. Cc1ccc(NC(=O)CNc2cc(C(N)=O)cc(F)c2C)c(Cl)c1
3. N#Cc1cccc(CN2CCC3=C(C2)C(=O)N(Cc2ccc(Cl)cc2)C2=NCCCN23)c1
4. CCCCCc1ccc(S(=O)(=O)Nc2cccc(-c3csc(NCCN4CCN(C)CC4)n3)c2)cc1

**A:**
1. 85.7% (inactive)
2. 87.2% (inactive)
3. 14.2% (inactive)
4. 15.5% (inactive)

Give growth for each listed item.
1. O=C(CN1CCN(c2cc(=O)n(-c3ccccc3)c3ccccc23)CC1)Nc1cccc(C(F)(F)F)c1
2. COc1ccc(-c2nc3ccc(-c4nnc(SCC(=O)Nc5ccc(C(=O)/C=C/c6ccc(Cl)cc6)cc5)o4)cc3[nH]2)cc1
3. CC(=O)c1cc(C(=O)c2ccc(Br)cc2)n2cc(C)cc(C)c12
4. Cc1c(F)cc(C(N)=O)cc1NCC(=O)Nc1ccc([N+](=O)[O-])cc1
5. CC1(C)CC[C@]23CC[C@]4(C)[C@H](CC[C@@H]5[C@@]6(C)CCCN(CO)C(C)(C)[C@@H]6CC[C@]54C)[C@H]2[C@H]1OC3

**A:**
1: 29.1% (inactive); 2: 78% (inactive); 3: 85.3% (inactive); 4: 87.1% (inactive); 5: 17.1% (inactive)

----------
tested on: NCI-H226 lung; assay: NCI-60 one-dose screen, 48 h (100 = growth as untreated, 0 = no growth, -100 = all killed); conditions: 10 µM unless noted
About 83,000 compounds went through this panel and 20% of them were active in at least one assay; those are over-represented in the sample as a whole. Calls of active or inactive are those of the source. The calls were made as follows: active = growth percent below 10; inactive = the rest.
Kindly state growth for each of the entries shown.

[[record]]
compound_string = "Cn1cc(-c2nc(N)nnc2-c2c[nH]c3ccc(Br)cc23)c2cc(Br)ccc21"
observed_value = "79.9% (inactive)"

[[record]]
compound_string = "CC1(C)[C@@H](O)CC[C@]2(C)[C@H]3CC[C@@H]4[C@H]5[C@H](C(=O)/C=C\\c6ccc([N+](=O)[O-])cc6)CC[C@]5(O)CC[C@@]4(C)[C@]3(C)CC[C@@H]12"
observed_value = "-2.45% (active)"

[[record]]
compound_string = "CN1c2ccccc2Sc2cc(C=C(C#N)C#N)ccc21"
observed_value = "-31.4% (active)"

[[record]]
compound_string = "Cc1ccc(S(=O)(=O)NCCNc2nc(Nc3ccc(N4CCN(C)CC4)cc3)nc3ccsc23)cc1"
observed_value = "104% (inactive)"


For every listed record, write down its growth.
1. CN1CCN(Cc2ccc(NC(=O)c3cncc(C#Cc4cnc5ccc(N6CCN(C)CC6)nn45)c3)cc2C(F)(F)F)CC1
2. CC(C)(C)c1ccc(C(=O)Nc2sc3c(c2C(N)=O)CC/C(=N\O)C3)cc1
3. COc1cccc(N2CCN(c3ncnc4c3[nH]c3ccc(F)cc34)C[C@H]2C)c1
4. O=C(NNc1nc2cc(F)c(F)cc2n2cccc12)c1cnccn1
5. CC(=O)c1ccc(Nc2nc(SCC(C)C)nc(-c3ccc(F)cc3)c2C#N)cc1

**A:**
28% (inactive)
17.5% (inactive)
33.5% (inactive)
45.1% (inactive)
114% (inactive)

----------
system: SK-MEL-5 melanoma; experiment: NCI-60 one-dose screen, 48 h (100 = growth as untreated, 0 = no growth, -100 = all killed); conditions: 10 µM unless noted
About 83,000 compounds went through this panel and 20% of them were active in at least one assay; those are over-represented in the sample as a whole.
measured attribute: growth (%)
Numbers only, in %.

[[record]]
compound = "COc1ccccc1-n1cc(C#N)c(N)c1C(=O)c1ccc(Br)cc1"
measured_attribute = "growth"
unit_string = "%"
observed_value = 77.4

[[record]]
compound = "NC(N)=Nc1ccc(Oc2cccc(NC(N)=Nc3ccc(Br)c(C(F)(F)F)c3)c2)cc1"
measured_attribute = "growth"
unit_string = "%"
observed_value = 36.8

[[record]]
compound = "C=CCn1c(SCC(=O)Nc2ccc(C(=O)/C=C/c3cccc([N+](=O)[O-])c3)cc2)nnc1-c1c[nH]c2ccccc12"
measured_attribute = "growth"
unit_string = "%"
observed_value = 59.5

[[record]]
compound = "COc1c(N2CC3CCCNC3C2)c(F)cc2c(=O)c(C(=O)N/N=C/c3ccccc3)cn(C3CC3)c12 (stereo unspecified)"
measured_attribute = "growth"
unit_string = "%"
observed_value = 87.8


Each compound below has a recorded value; state its growth.
1. CCOC(=O)c1c(NC(=O)c2ccccc2C(F)(F)F)sc2c1CCC(=O)C2
2. CCOC(=O)C(=O)CC(=O)N1C(=S)NC(=O)C1CC(C)C (stereo unspecified)
3. CCCCCc1ccc(S(=O)(=O)Nc2cccc(-c3csc(NC(=O)CN4CCN(C)CC4)n3)c2)cc1
4. COc1ccc2[nH]cc(/C=N/Nc3nc4ccccc4s3)c2c1

**A:**
1. -50.3
2. 95.6
3. 50.8
4. 83.7
